I'd appreciate it if you could supply inhibition at 30 min, 66 µM values for the items below.
# target.entity: CYP2E1 (Homo sapiens)
# assay.text: Chlorzoxazone hydroxylation inhibition (6-OH-CZX by LC/MS/MS)
# condition.summary: human, microsomes, pH 7.4
One number for each entry, in %.

{"molecule": "O=c1c(O)c(-c2cc(O)c(O)c(O)c2)oc2cc(O)cc(O)c12 [Myricetin]", "reading": 61.6}
{"molecule": "C[C@@H]1O[C@@H](Oc2c(-c3ccc(O)c(O)c3)oc3cc(O)cc(O)c3c2=O)[C@H](O)[C@H](O)[C@H]1O [Quercitrin]", "reading": 61}

(Q) Identify the measured inhibition at 30 min, 66 µM of O=c1c(O)c(-c2ccc(O)cc2O)oc2cc(O)cc(O)c12 [Morin] for CYP2E1 (Homo sapiens).
(A) 60.3

====

# target.entity: CYP2E1 (Homo sapiens, UniProt P05181)
# Sequence (P05181 whole entry): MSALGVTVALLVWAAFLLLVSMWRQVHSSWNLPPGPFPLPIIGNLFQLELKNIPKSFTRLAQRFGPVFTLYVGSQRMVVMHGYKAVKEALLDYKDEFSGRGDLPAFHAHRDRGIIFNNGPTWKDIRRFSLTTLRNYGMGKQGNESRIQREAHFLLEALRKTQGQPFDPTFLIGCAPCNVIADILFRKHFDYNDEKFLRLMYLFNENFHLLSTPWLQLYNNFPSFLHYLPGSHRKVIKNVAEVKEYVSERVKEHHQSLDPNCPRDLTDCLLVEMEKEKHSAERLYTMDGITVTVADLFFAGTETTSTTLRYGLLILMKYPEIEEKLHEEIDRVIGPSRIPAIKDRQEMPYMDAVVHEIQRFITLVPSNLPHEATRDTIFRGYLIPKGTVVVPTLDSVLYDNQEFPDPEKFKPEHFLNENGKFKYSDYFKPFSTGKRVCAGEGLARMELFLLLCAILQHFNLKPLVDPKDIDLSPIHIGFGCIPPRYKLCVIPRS
# assay.text: in vitro
# condition.summary: pH 7.4, Inhibition of CYP 2E1 (%), tested concentration 16.5 μM
Kindly return Y if reported inhibition at 40 min, 16.5 µM is no lower than 40%; return N if it is lower.

(Q) Quick check: does CC(Cc1ccc(O)c(O)c1)C(C)Cc1ccc(O)c(O)c1 (centres unmarked) [Nordihydroguaiaretic acid] have inhibition at 40 min, 16.5 µM greater than or equal to 40%?
(A) Y

(Q) Next molecule: O=c1c(O)c(-c2ccc(O)cc2)oc2cc(O)cc(O)c12 [Kaempferol]
(A) Y

====

# target.entity: CYP2E1 (Homo sapiens)
# assay.text: Chlorzoxazone hydroxylation inhibition (6-OH-CZX by LC/MS/MS)
# condition.summary: human, microsomes, pH 7.4
Use inhibition at 30 min, 16.5 µM to assign classes; range list: Low (below 30%), Medium (30% to below 40%), High (40% or more)

{"compound": "O=c1c(O)c(-c2cc(O)c(O)c(O)c2)oc2cc(O)cc(O)c12", "category": "High"}

(Q) Which band does `COc1ccc(-c2oc3cc(O)cc(O)c3c(=O)c2O)cc1O` fall in?
(A) Medium

(Q) And what about the compound `O=c1c(O)c(-c2ccc(O)cc2)oc2cc(O)cc(O)c12` ?
(A) High

(Q) Request: COc1cc(C2Oc3cc([C@H]4Oc5cc(O)cc(O)c5C(=O)[C@@H]4O)ccc3OC2CO)ccc1O (some centres unmarked)
(A) High

(Q) Entry to check: `O=c1cc(-c2ccc(O)cc2)oc2cc(O)c([C@@H]3O[C@H](CO)[C@@H](O)[C@H](O)[C@H]3O)c(O)c12`
(A) High

(Q) # repeat for `O=C(O)[C@H]1O[C@@H](Oc2cc3oc(-c4ccccc4)cc(=O)c3c(O)c2O)[C@H](O)[C@@H](O)[C@@H]1O`
(A) Low

(Q) Same lookup for `O=c1cc(-c2ccccc2)oc2cc(O)c(O)c(O)c12` , please.
(A) Medium

(Q) Repeat for the following compound: `O=c1cc(-c2ccc(O)cc2)oc2c([C@@H]3O[C@H](CO)[C@@H](O)[C@H](O)[C@H]3O)c(O)cc(O)c12`
(A) Low

(Q) Would you mind doing `O=c1c(O)c(-c2ccc(O)cc2O)oc2cc(O)cc(O)c12` as well?
(A) Medium

(Q) Check `COc1ccc([C@@H]2CC(=O)c3c(O)cc(O)cc3O2)cc1O` too.
(A) Low

(Q) Entry to check: O=c1c(O[C@@H]2O[C@H](CO)[C@H](O)[C@H](O)[C@H]2O)c(-c2ccc(O)c(O)c2)oc2cc(O)cc(O)c12 [Hyperoside]
(A) Low

(Q) Thanks! And `COc1cc(-c2oc3cc(O)cc(O)c3c(=O)c2O)ccc1O` ?
(A) Low

(Q) Now this one: O=C/C=C/c1ccccc1 [Trans-Cinnamaldehyde]
(A) High

(Q) `C=CC(=C)CCC=C(C)C` , same question.
(A) High

(Q) Next entry: `O=C1C[C@@H](c2ccc(O)cc2)Oc2cc(O)cc(O)c21`
(A) Low

====

# target.entity: CYP2E1 (Homo sapiens)
# assay.text: in vitro
# condition.summary: pH 7.4, Inhibition of CYP 2E1 (%), tested concentration 16.5 μM
quantity: inhibition at 40 min, 16.5 µM (%)
Answers are plain numbers, in %.

Consider the worked cases shown below.
{"compound": "O=C(CCc1ccc(O)cc1)c1c(O)cc(O)cc1O", "target.entity": "CYP2E1 (Homo sapiens)", "inhibition at 40 min, 16.5 µM [%]": 42}
{"compound": "O=C1C[C@@H](c2ccc(O)cc2)Oc2cc(O)cc(O)c21", "target.entity": "CYP2E1 (Homo sapiens)", "inhibition at 40 min, 16.5 µM [%]": 25.1}
{"compound": "CCCCCCCCCCCC1=C(O)C(=O)C=C(O)C1=O", "target.entity": "CYP2E1 (Homo sapiens)", "inhibition at 40 min, 16.5 µM [%]": 5.95}

I need inhibition at 40 min, 16.5 µM for every entry listed below, if you could help.
1. COc1ccc([C@@H]2CC(=O)c3c(O)cc(O)cc3O2)cc1O
2. O=C(O)/C=C/c1ccccc1 [trans-Cinnamic acid]
3. O=c1c(-c2ccc(O)cc2)coc2c([C@@H]3O[C@H](CO)[C@@H](O)[C@H](O)[C@H]3O)c(O)ccc12
4. O=C(O)c1cc(O)c(O)c(O)c1
5. O=C1c2c(O)cc(O)cc2O[C@H](c2ccc(O)c(O)c2)[C@H]1O [(+)-Taxifolin]
6. O=C(O)c1ccc(O)c(O)c1

(A)
[32.1, 5.71, 0.43, 35.6, 22.6, 25.7]

====

# target.entity: CYP2E1 (Homo sapiens)
# assay.text: Chlorzoxazone hydroxylation inhibition (6-OH-CZX by LC/MS/MS)
# condition.summary: human, microsomes, pH 7.4
Give inhibition at 30 min, 16.5 µM for every item shown.
Please state the value followed by its unit.

These solved cases illustrate the format of a correct answer.
{"compound": "O=c1cc(-c2ccc(O)c(O)c2)oc2cc(O)cc(O)c12 [Luteolin]", "inhibition at 30 min, 16.5 µM": "39.1%"}
{"compound": "C[C@@H]1O[C@@H](OC[C@H]2O[C@@H](Oc3c(-c4ccc(O)c(O)c4)oc4cc(O)cc(O)c4c3=O)[C@H](O)[C@@H](O)[C@@H]2O)[C@H](O)[C@H](O)[C@H]1O [Rutin]", "inhibition at 30 min, 16.5 µM": "30%"}
{"compound": "O=c1cc(-c2ccc(O)cc2)oc2cc(O)cc(O)c12 [Apigenin]", "inhibition at 30 min, 16.5 µM": "28.9%"}
{"compound": "C[C@@H]1O[C@@H](Oc2c(-c3ccc(O)c(O)c3)oc3cc(O)cc(O)c3c2=O)[C@H](O)[C@H](O)[C@H]1O [Quercitrin]", "inhibition at 30 min, 16.5 µM": "33.5%"}

Next compound, inhibition at 30 min, 16.5 µM to be filled in.
(Q) Which value of inhibition at 30 min, 16.5 µM has been reported for O=c1c(-c2ccc(O)cc2)coc2cc(O)ccc12 [Daidzein] in the records?
(A) 73.5%
